- MEASURED_ON: ETV4 337-484 (Homo sapiens, UniProt P43268 337-484)
- Sequence (P43268 337-484): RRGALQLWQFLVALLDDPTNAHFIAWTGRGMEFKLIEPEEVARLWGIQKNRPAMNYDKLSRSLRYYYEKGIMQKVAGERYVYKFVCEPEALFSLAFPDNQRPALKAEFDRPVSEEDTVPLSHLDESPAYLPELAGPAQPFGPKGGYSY
- PROTOCOL_DESCRIPTION: EMSA
ASSAY_ENDPOINT: Kd (nM)
Numbers only; they are read as nM.

What does the record list as Kd for 27-mer consensus ETS duplex (dsDNA) DNA 1: TCGACGGCCAAGCCGGAAGTGAGTGCC DNA 2: TCGAGGCACTCACTTCCGGCTTGGCCG ?
0.11
